Listed here: items and their measured GI50.
System: SNB-75
procedure-details: NCI tumour cell line growth inhibition, 48 h
Activity calls are given as the source filed them. No stated cut-off is given here; in the data, active = GI50 up to about 1.1 µM and inactive = higher.

Solved cases below.
CCN(CC)C(=C(C(Cl)=C(Cl)Cl)[N+](=O)[O-])N(CC)CC	22.3 µM (inactive)
CC[C@]12C=CCN3CC[C@@]4(c5cc(N=O)c(OC)cc5N(C)[C@H]4[C@@](O)(C(=O)NC(Cc4c[nH]c5ccccc45)C(=O)OC)[C@@H]1O)[C@@H]32 (stereo not given in full)	15 µM (inactive)
COc1ccc(C(=O)/C=C/c2ccc3c(c2)OCO3)c(OCc2ccccc2)c1	> 55.1 µM (inactive)
O=c1[nH][nH]c(=O)c2c1ccc1oc3ccccc3c12	> 100 µM (inactive)
CCOC(=O)C12C3CCC1C2C(=O)C3 (stereo not given)	> 100 µM (inactive)

Name the reported GI50 value associated with the compound Cn1c(=O)c2ccccc2c2ccccc21
44.9 µM (inactive)

Name the reported GI50 value associated with the compound Cc1cc(NS(=O)(=O)c2ccc(NC(=O)c3cccc4c(Nc5ccc(S(=O)(=O)Nc6cc(C)on6)cc5)c5ccccc5nc34)cc2)no1
22.3 µM (inactive)

Name the reported GI50 value associated with the compound O=c1cc(-c2ccc(O)c(O)c2)oc2cc(O[C@H]3O[C@H](CO)[C@@H](O)[C@H](O)[C@H]3O)cc(O)c12
20.2 µM (inactive)

Name the reported GI50 value associated with the compound CC1(C)CCc2ccc(OCCC(=O)O)cc2O1
83.4 µM (inactive)

Name the reported GI50 value associated with the compound C=CCCCCCCC#CCCCCCCCCCC[C@@H]1C(=O)O[C@H](C)[C@@H]1O.CCCCCCCCC#CCCCCCCCCCC[C@@H]1C(=O)O[C@H](C)[C@@H]1O
16.7 µM (inactive)

Name the reported GI50 value associated with the compound N/C(=N\N=C\c1nc2ccccc2o1)c1cnccn1
16.4 µM (inactive)

Name the reported GI50 value associated with the compound CSc1ncc2c(C#N)c3n(C)c4ccccc4n3c(=O)c2n1
> 100 µM (inactive)

----------
Listed here: items and their measured GI50.
Test system: NCI-H522
procedure-details: NCI tumour cell line growth inhibition, 48 h
Active and inactive are the calls of the source. No stated cut-off is given here; in the data, active = GI50 up to about 1.1 µM and inactive = higher.

Solved cases below.
Nc1nc(Cl)cc(NCCCCCCNc2cc(Cl)nc(N)n2)n1	27.7 µM (inactive)
CCOP12(OCC)NC(=O)OC1(C(F)(F)F)c1ccccc1O2 (stereo not given)	> 100 µM (inactive)
CCN(CC)CCCC(C)Nc1c(Sc2cnc3cc(Cl)ccc3c2NC(C)CCCN(CC)CC)cnc2cc(Cl)ccc12 (stereo not given)	1.73 µM (inactive)
CC1=C(NC(=O)/C(=N/NC(=S)NN)C2C(=O)CC(C)(C)CC2=O)C(=O)c2ccccc2C1=O	2.85 µM (inactive)

Name the reported GI50 value associated with the molecule Fc1ccc(/N=C/C=C/Nc2ccc(F)cc2)cc1
13.5 µM (inactive)

----------
System: SF-295
procedure-details: NCI tumour cell line growth inhibition, 48 h
Activity calls are given as the source filed them. Cut-off read from the data, not from the text of the source: active = GI50 up to about 1.1 µM and inactive = higher.
measured-quantity: GI50

Solved cases below.
C=CCOCn1ccc(=O)[nH]c1=O	> 100 µM (inactive)
C/N=C(\N)N/N=C(\C)c1ccc2oc3ccc(/C(C)=N/N/C(N)=N/C)cc3c2c1	3.85 µM (inactive)
O=C1/C(=C/c2ccccc2[N+](=O)[O-])N=C(c2ccccc2)N1c1nc2ccccc2s1	40.2 µM (inactive)
Cc1ccc(S(=O)(=O)C(CC(=O)N2CCCC2)C(=O)c2ccccc2)cc1 (stereo unspecified)	> 100 µM (inactive)
Cc1cc2c(c3c1c1ccccc1n3C)C(=O)c1ccccc1C2=O	> 100 µM (inactive)

Name the reported GI50 value associated with the molecule Nc1ncnc2sc(Nc3ccccc3)nc12
> 100 µM (inactive)

Name the reported GI50 value associated with the molecule Nc1ccc(-c2nc3ccc(F)cc3s2)cc1I
> 71 µM (inactive)

Name the reported GI50 value associated with the molecule CC1=C(NC(=O)/C(=N/NC(=S)NN)C2C(=O)CC(C)(C)CC2=O)C(=O)c2ccccc2C1=O
13.7 µM (inactive)

Reference for the values: ChEMBL document CHEMBL1201862
